- experimental-protocol: Pharmacokinetics in mice
- Assay type: in vivo
- conditions: female, BALB/c, mouse; 5mg/kg IV, mice, plasma, LC-MS/MS, non-compartmental analysis
Starred links: 1 amine or outer side, 2 acyl side, 3 side chain; linkers in the order of their positions; H or OH if unused. Positions of bridges follow the written chain, without caps; N, C: chain ends. Non-standard residues stand in square brackets, D forms with d. Residues, ends and D or L forms follow the SMILES beside them. *: point of attachment. dAsp(3R-OH) = N[C@@H](C(=O)O)[C@@H](O)C(=O)O; X1 = NC[C@H](O)[C@@H](N[*:1])C(=O)[*:2]; X2 = CCC(C)(O)[C@H](N[*:1])C(=O)[*:2]; d(aIle) = CC[C@H](C)[C@@H](N)C(=O)O; d(aThr) = C[C@@H](O)[C@@H](N)C(=O)O; Myristoyl = CCCCCCCCCCCCCC(=O)*; dOrn = NCCC[C@@H](N)C(=O)O; hSer = N[C@@H](CCO)C(=O)O
readout-type: AUC(0-inf) (µg·h/mL)
Form entry: value (µg·h/mL) — number only.

Task: Which AUC(0-inf) reading was recorded for the molecule CCCCCCCCCCCCCC(=O)N[C@H](CCCN)C(=O)N[C@@H](CO)C(=O)N[C@H](C(=O)N[C@@H](C(=O)N[C@@H](C(=O)N[C@H]1C(=O)NCC(=O)N[C@@H](C(C)(O)CC)C(=O)N[C@H]([C@@H](C)CC)C(=O)N[C@@H](CCO)C(=O)N[C@@H](C)C(=O)N[C@H]([C@@H](C)CC)C(=O)N[C@@H](CCC(=O)O)C(=O)O[C@@H]1C)[C@@H](O)CN)[C@@H](O)C(=O)O)C(C)C (stereo partly drawn) [Turnercyclamycin A] (Myristoyl-[dOrn]SV[dAsp(3R-OH)][X1][d(aThr)]G[X2][d(aIle)][hSer]A[d(aIle)]E; ester 6-C) ?
Output: 290

----------
- experimental-protocol: Pharmacokinetics in mice
- Assay type: in vivo
- conditions: female, BALB/c, mouse; 5mg/kg IV, mice, plasma, LC-MS/MS, non-compartmental analysis; read-out: CL (clearance rate) (converted)
Starred links: 1 amine or outer side, 2 acyl side, 3 side chain; linkers in the order of their positions; H or OH if unused. Positions of bridges follow the written chain, without caps; N, C: chain ends. Non-standard residues stand in square brackets, D forms with d. Residues, ends and D or L forms follow the SMILES beside them. *: point of attachment. dAsp(3R-OH) = N[C@@H](C(=O)O)[C@@H](O)C(=O)O; X1 = NC[C@H](O)[C@@H](N[*:1])C(=O)[*:2]; X2 = CCC(C)(O)[C@H](N[*:1])C(=O)[*:2]; d(aIle) = CC[C@H](C)[C@@H](N)C(=O)O; d(aThr) = C[C@@H](O)[C@@H](N)C(=O)O; Myristoyl = CCCCCCCCCCCCCC(=O)*; dOrn = NCCC[C@@H](N)C(=O)O; hSer = N[C@@H](CCO)C(=O)O
readout-type: clearance (mL/min/kg)
Form entry: value (mL/min/kg) — number only.

Task: Which clearance reading was recorded for the compound CCCCCCCCCCCCCC(=O)N[C@H](CCCN)C(=O)N[C@@H](CO)C(=O)N[C@H](C(=O)N[C@@H](C(=O)N[C@@H](C(=O)N[C@H]1C(=O)NCC(=O)N[C@@H](C(C)(O)CC)C(=O)N[C@H]([C@@H](C)CC)C(=O)N[C@@H](CCO)C(=O)N[C@@H](C)C(=O)N[C@H]([C@@H](C)CC)C(=O)N[C@@H](CCC(=O)O)C(=O)O[C@@H]1C)[C@@H](O)CN)[C@@H](O)C(=O)O)C(C)C (stereo partly drawn) [Turnercyclamycin A] (Myristoyl-[dOrn]SV[dAsp(3R-OH)][X1][d(aThr)]G[X2][d(aIle)][hSer]A[d(aIle)]E; ester 6-C) ?
Output: 0.29

----------
- experimental-protocol: Pharmacokinetics in mice
- Type: in vivo
- conditions: BALB/c, mouse; 5mg/kg IV, ALB/c female mice, plasma, LC-MS/MS, non-compartmental analysis (WinNonlin)
Starred links: 1 amine or outer side, 2 acyl side, 3 side chain; linkers in the order of their positions; H or OH if unused. Positions of bridges follow the written chain, without caps; N, C: chain ends. Non-standard residues stand in square brackets, D forms with d. Residues, ends and D or L forms follow the SMILES beside them. *: point of attachment. dAsp(3R-OH) = N[C@@H](C(=O)O)[C@@H](O)C(=O)O; X1 = NC[C@H](O)[C@@H](N[*:1])C(=O)[*:2]; X2 = CCC(C)(O)[C@H](N[*:1])C(=O)[*:2]; d(aIle) = CC[C@H](C)[C@@H](N)C(=O)O; d(aThr) = C[C@@H](O)[C@@H](N)C(=O)O; Myristoyl = CCCCCCCCCCCCCC(=O)*; dOrn = NCCC[C@@H](N)C(=O)O; hSer = N[C@@H](CCO)C(=O)O
readout-type: half-life (h)
Form entry: value (h) — number only.

Task: Which half-life reading was recorded for the molecule CCCCCCCCCCCCCC(=O)N[C@H](CCCN)C(=O)N[C@@H](CO)C(=O)N[C@H](C(=O)N[C@@H](C(=O)N[C@@H](C(=O)N[C@H]1C(=O)NCC(=O)N[C@@H](C(C)(O)CC)C(=O)N[C@H]([C@@H](C)CC)C(=O)N[C@@H](CCO)C(=O)N[C@@H](C)C(=O)N[C@H]([C@@H](C)CC)C(=O)N[C@@H](CCC(=O)O)C(=O)O[C@@H]1C)[C@@H](O)CN)[C@@H](O)C(=O)O)C(C)C (stereo partly drawn) [Turnercyclamycin A] (Myristoyl-[dOrn]SV[dAsp(3R-OH)][X1][d(aThr)]G[X2][d(aIle)][hSer]A[d(aIle)]E; ester 6-C) ?
Output: 4.35

----------
- experimental-protocol: Pharmacokinetics in mice
- Type: in vivo
- conditions: female, BALB/c, mouse; 5mg/kg IV, mice, plasma, LC-MS/MS, non-compartmental analysis; read-out: MRT (mean residence time)
Starred links: 1 amine or outer side, 2 acyl side, 3 side chain; linkers in the order of their positions; H or OH if unused. Positions of bridges follow the written chain, without caps; N, C: chain ends. Non-standard residues stand in square brackets, D forms with d. Residues, ends and D or L forms follow the SMILES beside them. *: point of attachment. dAsp(3R-OH) = N[C@@H](C(=O)O)[C@@H](O)C(=O)O; X1 = NC[C@H](O)[C@@H](N[*:1])C(=O)[*:2]; X2 = CCC(C)(O)[C@H](N[*:1])C(=O)[*:2]; d(aIle) = CC[C@H](C)[C@@H](N)C(=O)O; d(aThr) = C[C@@H](O)[C@@H](N)C(=O)O; Myristoyl = CCCCCCCCCCCCCC(=O)*; dOrn = NCCC[C@@H](N)C(=O)O; hSer = N[C@@H](CCO)C(=O)O
readout-type: MRT (h)
Form entry: value (h) — number only.

Task: Which MRT reading was recorded for the compound CCCCCCCCCCCCCC(=O)N[C@H](CCCN)C(=O)N[C@@H](CO)C(=O)N[C@H](C(=O)N[C@@H](C(=O)N[C@@H](C(=O)N[C@H]1C(=O)NCC(=O)N[C@@H](C(C)(O)CC)C(=O)N[C@H]([C@@H](C)CC)C(=O)N[C@@H](CCO)C(=O)N[C@@H](C)C(=O)N[C@H]([C@@H](C)CC)C(=O)N[C@@H](CCC(=O)O)C(=O)O[C@@H]1C)[C@@H](O)CN)[C@@H](O)C(=O)O)C(C)C (stereo partly drawn) [Turnercyclamycin A] (Myristoyl-[dOrn]SV[dAsp(3R-OH)][X1][d(aThr)]G[X2][d(aIle)][hSer]A[d(aIle)]E; ester 6-C) ?
Output: 5.83

----------
- experimental-protocol: Pharmacokinetics in mice
- Type: in vivo
- conditions: female, BALB/c, mouse; 5mg/kg IV, mice, plasma, LC-MS/MS, non-compartmental analysis
Starred links: 1 amine or outer side, 2 acyl side, 3 side chain; linkers in the order of their positions; H or OH if unused. Positions of bridges follow the written chain, without caps; N, C: chain ends. Non-standard residues stand in square brackets, D forms with d. Residues, ends and D or L forms follow the SMILES beside them. *: point of attachment. dAsp(3R-OH) = N[C@@H](C(=O)O)[C@@H](O)C(=O)O; X1 = NC[C@H](O)[C@@H](N[*:1])C(=O)[*:2]; X2 = CCC(C)(O)[C@H](N[*:1])C(=O)[*:2]; d(aIle) = CC[C@H](C)[C@@H](N)C(=O)O; d(aThr) = C[C@@H](O)[C@@H](N)C(=O)O; Myristoyl = CCCCCCCCCCCCCC(=O)*; dOrn = NCCC[C@@H](N)C(=O)O; hSer = N[C@@H](CCO)C(=O)O
readout-type: AUC(0-t) (µg·h/mL)
Form entry: value (µg·h/mL) — number only.

Task: Which AUC(0-t) reading was recorded for the compound CCCCCCCCCCCCCC(=O)N[C@H](CCCN)C(=O)N[C@@H](CO)C(=O)N[C@H](C(=O)N[C@@H](C(=O)N[C@@H](C(=O)N[C@H]1C(=O)NCC(=O)N[C@@H](C(C)(O)CC)C(=O)N[C@H]([C@@H](C)CC)C(=O)N[C@@H](CCO)C(=O)N[C@@H](C)C(=O)N[C@H]([C@@H](C)CC)C(=O)N[C@@H](CCC(=O)O)C(=O)O[C@@H]1C)[C@@H](O)CN)[C@@H](O)C(=O)O)C(C)C (stereo partly drawn) [Turnercyclamycin A] (Myristoyl-[dOrn]SV[dAsp(3R-OH)][X1][d(aThr)]G[X2][d(aIle)][hSer]A[d(aIle)]E; ester 6-C) ?
Output: 285
